Where these numbers come from: PubChem BioAssay (NCI)

- Test system: SN12C renal
- experiment.description: NCI tumour cell line growth inhibition, 48 h; in the data active = GI50 below about 0.43 µM; inactive = the rest
Respond with a class label; see active, inactive

Write down the call the test reported for this compound. Item: `CCN(CC)CCN1CC(O)=C(c2nc(-c3ccc(Cl)cc3)cs2)C1=N` inactive

Write down the call the test reported for this compound. Item: `Fc1cc(F)c(COc2cc(Cn3cnc4c(Cl)nc(Cl)nc43)ccc2C23CC4CC(CC(C4)C2)C3)cc1F` inactive

Write down the call the test reported for this compound. Item: `CN(C)c1ccc(N)cc1` inactive

Write down the call the test reported for this compound. Item: `NC(N)=NCCCn1c2c(c3ccccc3c1=O)C(=O)c1ccccc1-2` active

Write down the call the test reported for this compound. Item: `O=C(N/N=C/c1cccc(O)c1O)c1ccccc1` inactive

###

- Tested on: T-47D breast
- experiment.description: NCI tumour cell line growth inhibition, 48 h
Measured TGI, listed per entry for reference.

Sample records with TGI:
# molecule, recorded.result
data = [
    ("O=C(/C=C/c1cccc([N+](=O)[O-])c1)N1CCN(CCOC(c2ccccc2)c2ccccc2)CC1", "> 100 µM"),
    ("NCc1ccc(-c2ccc(CN)s2)s1", "> 100 µM"),
    ("COc1ccc(NC(=S)Nc2cc(C)ccn2)cc1", "> 100 µM"),
    ("CC(=O)OCC1OC(NC(=S)Nn2c(=O)[nH]c3ccccc3c2=O)C(OC(C)=O)C(OC(C)=O)C1OC(C)=O (stereo unspecified)", "> 100 µM"),
    ("CCN(CC)c1ccc(C(=N)c2ccc(N(CC)CC)cc2)cc1", "1.73 µM"),
    ("CC(C)c1ccc(C(=O)Nc2sc3c(c2C(N)=O)CCC(=O)C3)cc1", "2.1 µM"),
    ("CC(NC(=O)OCc1ccccc1)NC(=O)OC(C)(C)C (stereo unspecified)", "> 100 µM"),
    ("NCCCC[C@@H]1NC(=O)[C@H]2CCCN2C(=O)[C@H](Cc2ccccc2)NC(=O)[C@H](Cc2ccccc2)CNC1=O", "> 100 µM"),
    ("Cc1sc2nc(N(C)C)oc(=O)c2c1C", "> 100 µM"),
    ("Cc1ccc(S(=O)(=O)NC(=O)NCc2ccc(S(N)(=O)=O)cc2)cc1", "> 100 µM"),
]

Suppose we examine the molecule `O=C1Cc2c([nH]c3ccc(Br)cc23)-c2cc(Br)ccc2N1` ; what TGI value has been reported? > 100 µM

Suppose we examine the molecule COC(=O)C1C2OC(C)(C)OC2CN1S(=O)(=O)c1ccc(C)cc1 (stereo unspecified) ; what TGI value has been reported? > 100 µM

Suppose we examine the molecule CN1CCC23c4c5ccc(Oc6nnnn6-c6ccccc6)c4OC2c2[nH]c4ccccc4c2CC3(O)C1C5 (stereo unspecified) ; what TGI value has been reported? 23.1 µM

###

- Tested on: SK-MEL-28 melanoma
- experiment.description: NCI tumour cell line growth inhibition, 48 h
property.label: TGI

Sample records with TGI:
# molecule, recorded.result
data = [
    ("CCC1CN2CCc3cc(OC)c(OC)cc3C2CC1CC1c2cc(OC)c(OC)cc2CCN1C(=O)C(N)Cc1ccccc1 (stereo not given)", "10.3 µM"),
    ("COc1cc2c(cc1C)NC(=O)/C2=C/c1cccnc1", "> 100 µM"),
    ("COC(=O)Nc1nc2ccc(Oc3ccc(NC(=O)Nc4ccccc4)cc3)cc2[nH]1", "6.4 µM"),
    ("COC(=O)/C(C)=N/NC(=S)SC", "> 100 µM"),
]

Next molecule, TGI to be filled in.
Suppose we examine the molecule `CCN(CCCl)c1cc(CN(C)C)cc(NC(=O)c2ccc(C(=O)Nc3cc(CN(C)C)cc(N(CC)CCCl)c3)cc2)c1` ; what TGI value has been reported? 0.536 µM
